Below, each entry is listed with its recorded logP.
assay: Partition coefficient, log P of the compound; type: physicochemical; conditions: octanol/water
reported_property: logP

CC1CC1CNc1cc(C(=O)N[C@@H](Cc2ccccc2)[C@@H](N)CCC(F)(F)F)cc(N(C)S(C)(=O)=O)n1 (mixture of isomers) ... > 3.5
CCCC[C@H](N)[C@H](Cc1ccccc1)NC(=O)c1cc(NCC2CC2C)nc(N(C)S(C)(=O)=O)c1 (mixture of isomers) ... > 2.51
